Origin of the recorded values: patent US20260216366A1

Assign Cl to each entry below.
Assay: Pharmacokinetic study of CLDN18.2-linker conjugates (serum ELISA, NCA)
Assay type: in vivo, BALB/c mice
Settings: BALB/c mice, intravenous, about 1 mg/kg, serum, over 48 hours
Description: The in vivo pharmacokinetic profile of the CLDN18.2-linker conjugates was analyzed. Briefly, BALB/c mice were administered with the conjugates by intravenous injection at a dose of about 1 mg/kg. Then, whole blood of the animal was collected at different time points over 48 hours. The whole blood was collected into a tube without anticoagulation and maintained at room temperature for more than 30 minutes, followed by centrifuge at approximately 5000 rpm at 4° C. for 5 minutes to obtain serum. […]

Some molecules with recorded Cl:
CLDN18.2-L007: Claudin 18.2 sdAb (SEQ ID NO. 1) conjugated with functional linker L007 (conjugate, functional linker L007 conjugated) VHH: EVQLVESGGGLVQPGGSLRLSCAASGSFFRIVAMGWYRQAPGSQRELVATITRGGSTYYADSVKGRFTISRDNAKNTLYLQMNSLRAEDTAVYYCNVRVEVPFMQPNDYWGQGTLVTVSS: 0.45 ± 0.05 mL/min/kg
CLDN18.2-L006: Claudin 18.2 sdAb (SEQ ID NO. 1) conjugated with functional linker L006 (conjugate, functional linker L006 conjugated) VHH: EVQLVESGGGLVQPGGSLRLSCAASGSFFRIVAMGWYRQAPGSQRELVATITRGGSTYYADSVKGRFTISRDNAKNTLYLQMNSLRAEDTAVYYCNVRVEVPFMQPNDYWGQGTLVTVSS: 22.7 ± 2.2 mL/min/kg

Continue with the next molecule.
Enquiry: Which Cl is listed for CLDN18.2-L008: Claudin 18.2 sdAb (SEQ ID NO. 1) conjugated with functional linker L008 (conjugate, functional linker L008 conjugated) VHH: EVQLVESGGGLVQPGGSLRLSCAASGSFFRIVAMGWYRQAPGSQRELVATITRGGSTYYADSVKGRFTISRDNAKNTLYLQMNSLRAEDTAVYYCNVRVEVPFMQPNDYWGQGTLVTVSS ?
Return: 7.32 ± 0.367 mL/min/kg
